biological target: CCAAT/enhancer-binding protein beta (Homo sapiens); assay: ATG_C_EBP_CIS: Attagene CIS-FACTORIAL HepG2 Assay for human CCAAT/Enhancer Binding Protein (C/EBP) beta (AID 2282927); conditions: HepG2 Attagene cis-factorial transcription factor reporter; actives raise or lower the signal
Active and inactive are the calls of the source. Rule for the calls: active = hit-call score of the fitted dose curve at least 0.9, where 1 is the maximum; inactive = score below 0.9.

| molecule | AC50 |
| --- | --- |
| OCCN(CCO)c1cccc(Cl)c1 | inactive |
| O=C(C(=O)c1ccccc1)c1ccccc1 | inactive |
| c1cc(N(CC2CO2)CC2CO2)ccc1Cc1ccc(N(CC2CO2)CC2CO2)cc1 (stereo unspecified) | 99.5 µM (active) |
| c1ccc(CNc2ncnc3nc[nH]c23)cc1 | inactive |
| CN(C)N=Nc1ccccc1 | inactive |
| CNC(=C[N+](=O)[O-])NCCSCc1csc(CN(C)C)n1 | inactive |
